Recorded mass density, one value per entry.
# Cond: 298.15 K; 101.33 kPa; Liquid; Vibrating tube method
Numbers after ± are expanded uncertainties.
Assay readout: mass density

Molecule	Endpoint value
CCCCCCn1cc[n+](C)c1.F[B-](F)(F)F [1-hexyl-3-methylimidazolium tetrafluoroborate]	1144.46 ± 7.1 kg/m3
CCCCCCCCCCCCCC[P+](CCCCCC)(CCCCCC)CCCCCC.[Cl-] [trihexyl(tetradecyl)phosphonium chloride]	891.82 ± 4.3 kg/m3
CC(=O)CC(C)=O [2,4-pentanedione]	971.07 ± 0.07 kg/m3
CCCCCCCCN(CCCCCCCC)CCCCCCCC [trioctylamine]	807.46 ± 0.16 kg/m3
CCCCn1cc[n+](C)c1.F[P-](F)(F)(F)(F)F [1-butyl-3-methylimidazolium hexafluorophosphate]	1366.95 ± 10 kg/m3
CCCC[n+]1ccn(C)c1.O=S(=O)([N-]S(=O)(=O)C(F)(F)F)C(F)(F)F	1436.16 ± 11 kg/m3

---

Recorded mass density, one value per entry.
# Cond: 298.15 K; 101.33 kPa; Liquid; Vibrating tube method
Assay readout: mass density (kg/m3)

Compound	Endpoint value
CCCCCCCC[n+]1ccn(C)c1.F[B-](F)(F)F [1-methyl-3-octylimidazolium tetrafluoroborate]	1101.99
CCCCCCCCCCCCCC[P+](CCCCCC)(CCCCCC)CCCCCC.N#C[N-]C#N [tetradecyl(trihexyl)phosphonium dicyanamide]	899.14
CCn1cc[n+](C)c1.O=S(=O)([N-]S(=O)(=O)C(F)(F)F)C(F)(F)F	1518.86
CC(CC(C)(C)C)CP(=O)([O-])CC(C)CC(C)(C)C.CCCCCCCCCCCCCC[P+](CCCCCC)(CCCCCC)CCCCCC	886.43

---

Recorded refractive index, one value per entry.
# Test details: refractive index (Na D-line) (dimensionless)
# Cond: 298.15 K; 101.33 kPa; Liquid; Standard Abbe refractometry

Compound	refractive index
CCCCCCCC[n+]1ccn(C)c1.F[B-](F)(F)F [1-methyl-3-octylimidazolium tetrafluoroborate]	1.43306
CC(CC(C)(C)C)CP(=O)([O-])CC(C)CC(C)(C)C.CCCCCCCCCCCCCC[P+](CCCCCC)(CCCCCC)CCCCCC	1.47125
CC(=O)CC(C)=O	1.4509
O	1.33249
CCCC[n+]1ccn(C)c1.O=S(=O)([N-]S(=O)(=O)C(F)(F)F)C(F)(F)F	1.42689
CCn1cc[n+](C)c1.O=S(=O)([N-]S(=O)(=O)C(F)(F)F)C(F)(F)F	1.42293
CCCCCCCCCCCCCC[P+](CCCCCC)(CCCCCC)CCCCCC.[Cl-] [trihexyl(tetradecyl)phosphonium chloride]	1.48175
CCCCCCCCCCCCCC[P+](CCCCCC)(CCCCCC)CCCCCC.N#C[N-]C#N [tetradecyl(trihexyl)phosphonium dicyanamide]	1.48154
CCCCCCn1cc[n+](C)c1.F[B-](F)(F)F [1-hexyl-3-methylimidazolium tetrafluoroborate]	1.42844
CCCCCCCCN(CCCCCCCC)CCCCCCCC	1.44758
CCCCn1cc[n+](C)c1.F[P-](F)(F)(F)(F)F [1-butyl-3-methylimidazolium hexafluorophosphate]	1.40926
